- System Under Test: LRRK2 wild type (recombinant human, catalytic domain amino acids 970-2527, GST-tagged) (Homo sapiens, UniProt Q5S007)
- Construct: The wild type used was recombinant human, catalytic domain (amino acids 970-2527) GST-tagged, expressed in insect cells; GST
- Sequence (Q5S007 970-2527): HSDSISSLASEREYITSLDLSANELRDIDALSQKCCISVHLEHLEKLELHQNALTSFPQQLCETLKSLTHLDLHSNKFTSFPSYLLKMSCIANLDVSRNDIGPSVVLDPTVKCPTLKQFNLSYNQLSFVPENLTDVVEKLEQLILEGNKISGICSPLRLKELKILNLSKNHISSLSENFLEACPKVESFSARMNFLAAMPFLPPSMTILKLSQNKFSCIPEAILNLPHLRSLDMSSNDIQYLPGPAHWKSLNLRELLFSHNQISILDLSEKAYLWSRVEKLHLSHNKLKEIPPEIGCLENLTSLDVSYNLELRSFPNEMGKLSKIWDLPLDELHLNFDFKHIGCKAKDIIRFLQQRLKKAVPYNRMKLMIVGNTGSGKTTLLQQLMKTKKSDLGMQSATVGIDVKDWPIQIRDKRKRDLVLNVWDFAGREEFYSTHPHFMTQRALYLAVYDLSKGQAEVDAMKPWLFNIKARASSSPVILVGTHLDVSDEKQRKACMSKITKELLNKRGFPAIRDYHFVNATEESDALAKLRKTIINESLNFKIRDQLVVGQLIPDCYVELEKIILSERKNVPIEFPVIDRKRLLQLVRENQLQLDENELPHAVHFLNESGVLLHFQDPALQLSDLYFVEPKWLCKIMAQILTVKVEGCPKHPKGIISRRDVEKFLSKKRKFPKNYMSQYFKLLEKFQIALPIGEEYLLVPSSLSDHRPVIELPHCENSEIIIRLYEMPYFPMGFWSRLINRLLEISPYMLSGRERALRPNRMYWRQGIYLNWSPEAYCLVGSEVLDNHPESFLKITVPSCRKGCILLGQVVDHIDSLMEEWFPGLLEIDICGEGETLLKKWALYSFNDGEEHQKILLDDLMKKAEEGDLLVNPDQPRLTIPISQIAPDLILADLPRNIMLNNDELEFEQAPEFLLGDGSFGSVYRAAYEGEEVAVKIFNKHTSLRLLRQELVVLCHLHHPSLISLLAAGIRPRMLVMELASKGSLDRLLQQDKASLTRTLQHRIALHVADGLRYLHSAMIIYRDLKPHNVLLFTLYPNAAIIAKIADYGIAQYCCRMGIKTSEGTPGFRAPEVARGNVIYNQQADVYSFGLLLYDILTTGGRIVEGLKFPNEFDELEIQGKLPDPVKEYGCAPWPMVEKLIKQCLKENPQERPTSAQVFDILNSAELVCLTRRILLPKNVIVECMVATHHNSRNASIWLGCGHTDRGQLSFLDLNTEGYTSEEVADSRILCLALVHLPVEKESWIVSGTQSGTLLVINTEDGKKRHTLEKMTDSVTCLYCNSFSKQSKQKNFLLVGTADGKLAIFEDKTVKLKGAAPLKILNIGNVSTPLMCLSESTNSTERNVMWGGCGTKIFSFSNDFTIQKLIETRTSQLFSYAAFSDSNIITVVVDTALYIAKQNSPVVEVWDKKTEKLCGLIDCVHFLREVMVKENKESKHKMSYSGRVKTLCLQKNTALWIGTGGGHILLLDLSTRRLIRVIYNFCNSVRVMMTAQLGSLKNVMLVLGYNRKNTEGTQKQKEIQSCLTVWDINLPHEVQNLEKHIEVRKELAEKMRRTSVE
- Assay Explanation: LRRK2 wild type protein kinase assay ([γ-33P] ATP, peptide substrate […]), IC50
- Condition Description: LRRK2 (variant not given); read-out: Potency score, LRRK2 IC50
pIC50: −log10 of the molar value.
Readout Label: pIC50

See these solved cases before continuing.
Molecule: Cc1n[nH]c2ccnc(O[C@@H]3CCOC3)c12
pIC50: 6.00 to 7.00

Molecule: Cc1n[nH]c2ccnc(N[C@H](C)C3CC3)c12
pIC50: 5.00 to 6.00

Molecule: Cc1n[nH]c2ccnc(OCC(F)(F)F)c12
pIC50: 6.00 to 7.00

Molecule: O=C(CCc1n[nH]c2ccnc(NC3CCCCC3)c12)N1CCCCC1c1ccccc1 (stereo not shown)
pIC50: 6.00 to 7.00

Molecule: O=C(CCc1n[nH]c2ccnc(NC3CCCCC3)c12)N1CCC[C@H](c2ccccc2)C1
pIC50: > 7.00

pIC50 measured on Cc1n[nH]c2ccnc(N3CCN(Cc4cc(F)ccc4F)CC3)c12 = 5.00 to 6.00

Consider Clc1ccc(-c2n[nH]c3ccnc(NC4CCCCC4)c23)cc1 . Its measured pIC50 is 6.00 to 7.00

The reported value for CC(=O)Nc1cccc(-c2n[nH]c3ccnc(NC4CCCCC4)c23)c1 in terms of pIC50 is 5.00 to 6.00

Input Cc1ccc(Nc2nccc3[nH]nc(C)c23)cc1 . Output pIC50: > 7.00

----------
- System Under Test: LRRK2 wild type (recombinant human, catalytic domain amino acids 970-2527, GST-tagged) (Homo sapiens, UniProt Q5S007)
- Construct: The wild type used was recombinant human, catalytic domain (amino acids 970-2527) GST-tagged, expressed in insect cells; GST
- Assay Explanation: LRRK2 wild type protein kinase assay ([γ-33P] ATP, peptide substrate […]), IC50
- Condition Description: LRRK2 (variant not given); read-out: Potency score, LRRK2 IC50
pIC50: −log10 of the molar value.
Readout Label: pIC50

Worked set:
Compound: c1cncc(-c2n[nH]c3ccnc(NC4CCCCC4)c23)c1 [Example 135]
Readout Label: pIC50
Result: 6.00 to 7.00
//
Compound: Cc1n[nH]c2ccnc(OCCC(C)C)c12 [Example 282]
Readout Label: pIC50
Result: 6.00 to 7.00
//
Compound: Cc1n[nH]c2ccnc(Nc3ccc4ncoc4c3)c12 [Example 349]
Readout Label: pIC50
Result: 6.00 to 7.00

Recorded pIC50 (compound Cc1n[nH]c2ccnc(Nc3ccc4nc[nH]c4c3)c12 [Example 81] ): 6.00 to 7.00

Data point: CN1CCN(C(=O)CCc2n[nH]c3ccnc(NC4CCCCC4)c23)CC1 [Example 177] ; pIC50 = 6.00 to 7.00

Kindly note the recorded pIC50 for Cc1n[nH]c2ccnc(-c3ccc(C#N)cc3)c12 [Example 54] , which is 5.00 to 6.00

So for CC(=O)Nc1cccc(NC(=O)c2ccc(CCc3n[nH]c4ccnc(NC5CCCCC5)c34)cc2)c1 [Example 255] , the logged pIC50 turned out to be > 7.00

Value of pIC50 reported for the compound O=C(CCc1n[nH]c2ccnc(NC3CCCCC3)c12)NCC1CCOCC1 [Example 185] is 5.00 to 6.00

Lab note: measured pIC50 of CC(=O)Nc1cccc(Nc2nccc3[nH]nc(C)c23)c1 [Example 78] was 5.00 to 6.00

meta.source: patent US20170320870A1
